Molecular target: T1, TAP complex of MJS TAP1-GFP cells (TAP1-GFP with TAP2) ( | human (endogenous in MJS), UniProt Q03518;Q03519)
T1 construct: also called GFP-tagged TAP
T1 sequence 1: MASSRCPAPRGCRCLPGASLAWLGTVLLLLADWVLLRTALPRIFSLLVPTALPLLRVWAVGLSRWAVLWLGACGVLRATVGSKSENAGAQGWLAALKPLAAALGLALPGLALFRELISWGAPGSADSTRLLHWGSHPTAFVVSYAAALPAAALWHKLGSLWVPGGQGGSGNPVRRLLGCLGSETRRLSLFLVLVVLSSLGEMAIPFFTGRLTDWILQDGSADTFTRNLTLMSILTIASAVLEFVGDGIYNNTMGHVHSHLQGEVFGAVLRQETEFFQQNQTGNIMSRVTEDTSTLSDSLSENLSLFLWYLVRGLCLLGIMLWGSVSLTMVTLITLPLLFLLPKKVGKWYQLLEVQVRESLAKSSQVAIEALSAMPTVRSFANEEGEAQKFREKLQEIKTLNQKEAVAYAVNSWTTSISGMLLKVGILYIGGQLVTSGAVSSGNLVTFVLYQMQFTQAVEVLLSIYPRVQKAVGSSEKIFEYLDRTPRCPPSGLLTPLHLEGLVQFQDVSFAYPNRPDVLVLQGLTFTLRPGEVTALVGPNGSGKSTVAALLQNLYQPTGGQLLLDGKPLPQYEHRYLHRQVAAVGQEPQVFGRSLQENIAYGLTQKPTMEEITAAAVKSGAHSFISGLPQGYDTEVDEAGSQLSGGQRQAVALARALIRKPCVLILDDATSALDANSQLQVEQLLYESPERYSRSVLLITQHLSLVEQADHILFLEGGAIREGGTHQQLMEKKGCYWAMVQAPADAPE
T1 sequence 2: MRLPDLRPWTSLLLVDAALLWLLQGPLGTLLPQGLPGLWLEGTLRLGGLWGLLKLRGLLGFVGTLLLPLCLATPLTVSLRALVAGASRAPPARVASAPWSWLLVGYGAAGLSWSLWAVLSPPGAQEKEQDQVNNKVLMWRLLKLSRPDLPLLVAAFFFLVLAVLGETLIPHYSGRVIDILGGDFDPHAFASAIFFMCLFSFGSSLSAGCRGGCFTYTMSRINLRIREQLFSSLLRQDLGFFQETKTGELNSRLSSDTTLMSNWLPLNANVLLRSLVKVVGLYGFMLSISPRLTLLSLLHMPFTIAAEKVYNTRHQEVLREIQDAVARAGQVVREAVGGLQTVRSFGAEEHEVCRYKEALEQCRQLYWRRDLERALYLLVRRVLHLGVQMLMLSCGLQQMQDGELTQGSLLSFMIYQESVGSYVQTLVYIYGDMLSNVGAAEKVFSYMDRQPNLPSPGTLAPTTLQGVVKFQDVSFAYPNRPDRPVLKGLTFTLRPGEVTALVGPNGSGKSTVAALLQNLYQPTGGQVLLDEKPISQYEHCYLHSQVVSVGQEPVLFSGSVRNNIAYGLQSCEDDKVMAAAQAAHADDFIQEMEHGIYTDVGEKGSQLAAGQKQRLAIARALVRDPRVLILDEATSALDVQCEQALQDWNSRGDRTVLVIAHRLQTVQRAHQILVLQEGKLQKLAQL
Assay: radioligand binding; as a2, but microsomes of MJS TAP1-GFP cells that express EHV-1 UL49.5
Conditions: one partner purified
Where no end group is shown, it is not given here. The star is where a group is joined. 125I = [125I]*
endpoint: Kd (nM)
Note: unit nM is implicit; provide only the numeric part.

Record summary for RRY(125I)QKSTEL (also called ^125I-labeled reporter peptide; radiolabeled peptide) [radiolabeled reporter peptide RR[125I]YQKSTEL] : reported Kd = 236

From: paper PMC2386557
